# Assay: Plasma protein binding assay, mouse plasma (mPPB)
# Assay type: in vitro ADME
# Condition Label: 5 μM, equilibrium dialysis 4 hours 37° C.
Provide the reported mPPB (% free) of each item.

molecule="O=C1CCc2c(Oc3ccc4c(c3)CC(c3nc(-c5ccnc(C(F)(F)F)c5)c[nH]3)CO4)ccnc2N1 (stereo not drawn)" reported_measurement="1.1 % free"
molecule="O=C1CCc2c(Oc3ccc4c(c3)CC(c3cc(-c5ccccc5Cl)n[nH]3)CO4)ccnc2N1 (stereo not drawn)" reported_measurement="<0.1 % free"
molecule="Cc1cc(C(F)(F)F)cc2nc(C3COc4ccc(Oc5ccnc6c5CCC(=O)N6)cc4C3)[nH]c12 (stereo not drawn)" reported_measurement="0.2 % free"

Each molecule below has a reported value. Please supply its mPPB (% free).
1. O=C1CCc2c(Oc3ccc4c(c3)CC(c3nc(-c5ccc(C(F)(F)F)cc5)c[nH]3)CO4)ccnc2N1 (stereo not drawn)
2. CN(C)Cc1cc(C(F)(F)F)c2nc(C3COc4ccc(Oc5ccnc6c5CCC(=O)N6)cc4C3)[nH]c2c1 (stereo not drawn)
3. O=C1CCc2c(Oc3ccc4c(c3)CC(c3nc(-c5ccccc5F)c[nH]3)CO4)ccnc2N1 (stereo not drawn)

["0.1 % free", "3.2 % free", "0.5 % free"]

----------
# Assay: Plasma protein binding assay, mouse plasma (mPPB)
# Type: in vitro ADME
# Condition Label: 5 μM, equilibrium dialysis 4 hours at 37° C.
Measure Name: mPPB (% free)
One number for each entry, in % free.

Record excerpt, results attached:
molecule="O=C1CCc2c(Oc3ccc4c(c3)CC(c3nc(-c5ccnc(C(F)F)c5)c[nH]3)CO4)ccnc2N1 (stereo not drawn) [Compound 101]" readout_units="% free" reported_measurement=1.1
molecule="O=C(CN1CCCC1)Nc1cc(Oc2ccc3c(c2)CC(c2nc(-c4ccccc4)c[nH]2)CO3)ccn1 (stereo not drawn) [Compound 152]" readout_units="% free" reported_measurement=0.47

State the recorded mPPB (% free) for this entry: CCn1nc(C)cc1-c1c[nH]c(C2COc3ccc(Oc4ccnc5c4CCC(=O)N5)cc3C2)n1 (stereo not drawn) [Compound 124]
3.9

----------
# Assay: Plasma protein binding assay, mouse plasma (mPPB)
# Type: in vitro ADME
# Condition Label: 5 μM, equilibrium dialysis 4 hours 37° C.
Could you please report measured mPPB (% free) for the items listed next?
One number for each entry, in % free.

compound="c1ccc(-c2c[nH]c(C3COc4ccc(OC5CCOCC5)cc4C3)n2)cc1 (centres unmarked) [compound 51]" measure_name="mPPB (% free)" readout_units="% free" reported_measurement=2.6

Okay, here is my list. What is mPPB (% free) for each of these?
1. O=C1CCc2c(Oc3ccc4c(c3)CN(C(=O)Nc3ccccc3)CC4)ccnc2N1 [Compound 46]
2. O=C1CCc2c(Oc3ccc4c(c3)CC(c3nc(-c5ccc(Cl)cc5)c[nH]3)CO4)ccnc2N1 (centres unmarked) [Compound 11]
3. COc1cccc(-c2c[nH]c(C3COc4ccc(Oc5ccnc6c5CCC(=O)N6)cc4C3)n2)c1 (centres unmarked) [Compound 13]
4. COc1ccc(-c2c[nH]c(C3COc4ccc(Oc5ccnc6c5CCC(=O)N6)cc4C3)n2)cc1 (centres unmarked) [Compound 10]
5. COc1cncc(-c2c[nH]c(C3COc4ccc(Oc5ccnc6c5CCC(=O)N6)cc4C3)n2)c1 (centres unmarked) [Compound 17]
6. CN1CCN(Cc2cc(C(F)(F)F)c3nc(C4COc5ccc(Oc6ccnc7c6CCC(=O)N7)cc5C4)[nH]c3c2)CC1 (centres unmarked) [Compound 28]

1. 2.3
2. 0.1
3. 1.2
4. 0.7
5. 2.4
6. 0.5
